// provenance: ChEMBL document CHEMBL4808148

biological target: Protein deacetylase HDAC6 (Homo sapiens); details: at 10 µM
The whole screen tested about 5,600 compounds, of which about 390 (7%) showed an effect of 50% or more. The sample as a whole holds a higher share of strong results than the screen did.
In this section, each of the molecules is paired with its reported inhibition.
Assay Metric: inhibition (%)

- Structure Smiles String: "Nc1nc(NC2CC2)c2ncn([C@H]3C=C[C@@H](CO)C3)c2n1"
  Measurement: -5.79
- Structure Smiles String: "CS(=O)(=O)c1ccc(-c2cnc(N)c(C(=O)Nc3ccccc3)n2)cc1"
  Measurement: 6.2
- Structure Smiles String: "Cc1ccc(-n2nc(C(C)(C)C)cc2NC(=O)NCc2cc(F)ccc2Oc2ccc3c(cnn3CCO)c2)cc1"
  Measurement: 30.6
- Structure Smiles String: "CCCOC(=O)c1ccccc1"
  Measurement: 8.38
